B1: GAGE1 (parent)
chain: RPRRYVQPPEMIGPMRPEQFSDEV

- Variants of: B1
- experiment: protein stability index of a GFP-peptide fusion (GPS, HEK-293T) (PSI 1-6); higher = more stable;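 also: lentivirally expressed fusions sorted by FACS into six bins by GFP to DsRed ratio, PSI derived from sequencing read proportions per bin multiplied by bin number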
- recorded_conditions: c terminus: a fixed tail appended
experimental_readout: protein stability index
Enter a number only.

Annotate the variant P2C with its measured protein stability index. 2.99

State, in one line, measured protein stability index of V24I 3.51

Given P9Y , respond with its protein stability index. 3.62
